ASSAY PROCEDURE: Fraction unbound in Cynomolgus monkey plasma
Type: ADME, cell-free, Macaca fascicularis
OBSERVABLE: fraction unbound
Answer with a number only.

// returns reported fraction unbound for input "Cc1cn2cc(-c3cc(=O)n4cc(N5CCN(C)CC5)ccc4n3)cc(F)c2n1"
0.18

// returns reported fraction unbound for input "CCc1nc(C)cn2nc(-c3cc(=O)n4cc(C5CCN(C)CC5)cc(C)c4n3)cc12"
0.16

// returns reported fraction unbound for input "Cc1cn2cc(-c3cc(=O)n4cc(N5CCN(C)CC5)ccc4n3)cc(C)c2n1"
0.08

----------
ASSAY PROCEDURE: Octanol-aqueous phosphate buffer distribution coefficient, log D of the compound at pH 7.4 at 100 mM after 24 hrs by LC-MS based shake flask method
Assay type: physicochemical
# logD at 24 h per record follows
Answer with a number only.

Reference set, count: 3
RECORD SMILES: Cc1cn2cc(-c3cc(=O)n4cc(N5CCN(C)CC5)ccc4n3)cc(F)c2n1
NUMERIC RESULT: 2.3
--
RECORD SMILES: Cc1nc2c(F)cc(-c3cc(=O)n4cc(N5CCN(C)CC5)ccc4n3)cc2o1
NUMERIC RESULT: 2.46
--
RECORD SMILES: Cc1cn2nc(-c3cc(=O)n4cc(C5CCN(C)CC5)cc(C)c4n3)cc2c(C)n1
NUMERIC RESULT: 1.82

// returns reported logD at 24 h for input "Cc1cn2cc(-c3cc(=O)n4cc(N5CCN(C)CC5)ccc4n3)cc(C)c2n1"
2.49

// returns reported logD at 24 h for input "CCN1CCC(c2cc(C)c3nc(-c4cc5c(C)nc(C)cn5n4)cc(=O)n3c2)CC1"
1.87

----------
ASSAY PROCEDURE: AUC in plasma of C/C-allele mouse harboring FVB.129(B6)-Smn1tm5(Smn1/SMN2)Mrph/J at 10 mg/kg, po
Type: ADME, organism-based
OBSERVABLE: AUC (ng·h/mL)
Reply numerically in ng·h/mL, unit not repeated.

Reference set, count: 2
RECORD SMILES: CCc1nc(C)cn2nc(-c3cc(=O)n4cc(C5CCN(C)CC5)cc(C)c4n3)cc12
AUC [ng·h/mL]: 33000
//
RECORD SMILES: Cc1cn2cc(-c3cc(=O)n4cc(N5CCN(C)CC5)ccc4n3)cc(C)c2n1
AUC [ng·h/mL]: 2500

Consider now this further compound.
// returns reported AUC for input "Cc1cn2cc(-c3cc(=O)n4cc(N5CCN(C)CC5)ccc4n3)cc(F)c2n1"
2700

----------
Organism: Homo sapiens
ASSAY PROCEDURE: Inhibition of mRNA splicing of SMN2 exon 7 in fibroblasts derived from human SMA type 1/2/3 patient assessed as increase in SMN protein level after 48 hrs by HTRF assay
OBSERVABLE: EC1.5 (nM)
Reply numerically in nM, unit not repeated.

// returns reported EC1.5 for input "Cc1nc2c(F)cc(-c3cc(=O)n4cc(N5CCN(C)CC5)ccc4n3)cc2o1"
13

// returns reported EC1.5 for input "Cc1cn2cc(-c3cc(=O)n4cc(N5CCC(N6CCCC6)CC5)ccc4n3)cc(C(F)(F)F)c2n1"
76

// returns reported EC1.5 for input "Cc1cn2nc(-c3cc(=O)n4cc(C5CCN(C)CC5)cc(C)c4n3)cc2c(C)n1"
77
